Data origin: patent US8618111B2

What pIC50 was measured for each of the following?
Convention used: pIC50 is expressed as -log10 of the molar concentration.

Query the reported pIC50 for mTOR (Homo sapiens (Human), UniProt P42345); item: Cc1ncnc(N2CCC(CNC(=O)CN(C)C)CC2)c1C#Cc1ccc(N)nc1 6.34

Query the reported pIC50 for mTOR (Homo sapiens (Human), UniProt P42345); item: CCc1ncnc(N2CCNC(=O)CC2)c1C#Cc1ccc(N)nc1 7.85

Query the reported pIC50 for mTOR (Homo sapiens (Human), UniProt P42345); item: Cc1ncnc(N2CCC(CC(=O)N(C)CCN(C)C)CC2)c1C#Cc1ccc(N)nc1 6.34

Query the reported pIC50 for mTOR (Homo sapiens (Human), UniProt P42345); item: Cc1ncnc(N2CCC(CC(=O)NCCN(C)C)CC2)c1C#Cc1ccc(N)nc1 6.58

Query the reported pIC50 for mTOR (Homo sapiens (Human), UniProt P42345); item: CCc1ncnc(N2CCN(S(C)(=O)=O)CC2)c1C#Cc1ccc(N)nc1 7.80

Query the reported pIC50 for mTOR (Homo sapiens (Human), UniProt P42345); item: CCc1ncnc(N2CCC3(CCNC3=O)CC2)c1C#Cc1ccc(N)nc1 7.52

Query the reported pIC50 for mTOR (Homo sapiens (Human), UniProt P42345); item: CCc1ncnc(N2CCc3ncncc3C2)c1C#Cc1ccc(N)nc1 7.57

Query the reported pIC50 for mTOR (Homo sapiens (Human), UniProt P42345); item: Cc1ncnc(N2CCC(CNC(=O)C3CCCCC3)CC2)c1C#Cc1ccc(N)nc1 7.11

Query the reported pIC50 for mTOR (Homo sapiens (Human), UniProt P42345); item: CCc1ncnc(N2CCN(C(=O)CC#N)CC2)c1C#Cc1ccc(N)nc1 7.04
